tested on: UACC-62 melanoma; test: NCI tumour cell line growth inhibition, 48 h
Where a SMILES comes first, the peptide text is derived from it. The star is where a group is joined. Boc = CC(C)(C)OC(=O)*; OBn = c1ccc(CO*)cc1
Assay Metric: TGI

TGI for O=C1CC(NC(=O)C(F)(F)F)c2c1csc2Br (configuration not stated) ? > 100 µM

// same read-out, input: O=C1c2ccccc2-c2cccc3ccc(Cc4ccc5ccccc5c4)c1c23 > 100 µM

# repeat for O=S(=O)(NC1=NCCN1C(=S)SN1CCn2c1nsc2=S)c1ccc(Br)cc1 94.3 µM

Ok, now COc1cc(OCc2ccc3nc(-c4ccccc4)c(Cl)nc3c2)cc(OC)c1OC > 100 µM

Also, COc1ccc(N2C(=O)CC(Cl)C2=O)cc1 (configuration not stated) please. 46.5 µM

Now this one: COc1ccc(/C=C2\CCC(CNc3cc(C)on3)C2=O)cc1 (configuration not stated) > 100 µM

Another compound to check: CCCCc1c2c(nc3c1CCC/C3=C\c1ccccc1)C(=O)CCC2 44 µM

Repeat for the following compound: CC(C)C(NC(=O)C(Cc1ccccc1)NC(=O)OC(C)(C)C)C(=O)NCC(=O)OCc1ccccc1 (stereo not drawn) (Boc-Phe-Val-Gly-OBn; configuration not given here) 30.9 µM

Entry ClC1(Cl)C(c2ccccc2)C1c1ccccc1 (configuration not stated) please > 100 µM

How about CO[C@H]1c2cccc3cccc(c23)[C@@H]1n1[nH]c(=O)n(C(C)(C)C)c1=O ? > 100 µM

Here is the next compound: CC(=O)c1cccc(N2COC(C)(C)c3nc4ccccc4n3C2)c1 > 100 µM

Next entry: CC1=NN(C(=O)CC(=O)Nc2ccc(C)cc2)C(=O)C1N=Nc1ccc(C(=O)O)cc1 (configuration not stated) > 100 µM

----------
test system: NCI-H23 lung; assay: NCI tumour cell line growth inhibition, 48 h
Kindly state TGI for each of the entries shown.

What value of measured TGI is listed for O/N=C(\c1ccccc1)N1CCCCC1 ? > 100 µM

What do you have for COC(=O)C(Cc1cn(C(C)=O)c2ccccc12)P(=O)(OC)OC (configuration not stated) ? > 100 µM

And the next one, O=S(=O)(NC1=NCCN1C(=S)SN1CCn2c1nsc2=S)c1ccc(Br)cc1 ? > 100 µM

Also COc1cc(/C=C(\C#N)C(=O)c2ccccc2)ccc1OCc1ccccc1 , if possible. > 100 µM

What do we get for CC(C)c1ccc(C(=O)Nc2nc3ccc(O)cc3s2)cc1 ? > 100 µM

Would you mind doing COc1cccc(OC/C(N=Cc2cccnc2)=N/NC(=O)c2ccncc2)c1 as well? > 100 µM

Same question, O=C1CC(NC(=O)C(F)(F)F)c2c1csc2Br (configuration not stated) this time > 100 µM

Now this one: OC1(CCc2ccccc2)COC(C(F)(F)F)(C(F)(F)F)C1 (configuration not stated) > 100 µM

Now try CN[C@@H](C)C(=O)N[C@H](C(=O)N1CCC[C@H]1C(=O)N[C@H]1c2ccccc2C[C@H]1OCC#CC#CCO[C@@H]1Cc2ccccc2[C@@H]1NC(=O)[C@@H]1CCCN1C(=O)[C@@H](NC(=O)[C@H](C)NC)C1CCCCC1)C1CCCCC1 . 6.98 µM

What do you have for O=C1c2ccccc2-c2c1c1ccccc1c(=O)n2CCCNCCCn1ccnc1 ? 1.53 µM

Follow-up item: CSc1ccc(C2=NN(C(=O)c3ccc(F)cc3)C(c3ccc(F)cc3)C2)cc1 (configuration not stated) 36.2 µM

Also CC1C[C@@]2(c3ccccc3)C(=O)CCC[C@H]2N1 (some centres not stated) ? > 100 µM

----------
Record form. Attribute: TGI. Fill in for each entry.
tested on: MALME-3M melanoma; assay: NCI tumour cell line growth inhibition, 48 h
Where a SMILES comes first, the peptide text is derived from it. [ ]: non-standard residue; d: D form. Ac5c = NC1(C(=O)O)CCCC1

Please look up its TGI: C=C1C(=O)C23CC1C[C@H](OC(C)=O)[C@H]2C1(C)C(OC(C)=O)C[C@H](O)C(C)(C)[C@H]1C(=O)[C@@H]3OC(C)=O (some centres not stated) 5.15 µM

Here is the next compound: CCOC(=O)CCC(NC(=O)c1ccc(CNc2nc3ccccc3nc2C(=O)OCC)cc1)C(=O)OCC (configuration not stated) > 100 µM

Moving on to the next compound: C[C@]12C[C@H](c3ccccc3)Nc3ccccc3N1C(c1ccccc1)=NO2 > 100 µM

And CCOC(=O)c1cc(C#N)c(=O)n(/N=C(\C)c2ccncc2)c1O ? > 100 µM

One more compound: O=C1c2ccccc2C(=O)N1CCCSc1ccccc1 > 100 µM

Repeat for the following compound: CN1CCC2(CC1)SC[C@H]1C(=O)N(c3ccc(Cl)cc3)C(=O)N12 > 100 µM

Now the compound CCN(CC)c1cc2c3c(c1)CCCN3CCC2 > 10 µM

Now the same for CC[C@](O)(CC(=O)O[C@H]1C(=O)O[C@@H]2C[C@H]3C(C)=CC(=O)[C@@H](O)[C@]3(C)[C@H]3[C@@]4(O)OC[C@]32[C@@H]1[C@@H](C)[C@H]4O)C(C)C < 0.01 µM

Try this compound next: C=CCC(N[C@H](CO)c1ccccc1)c1ccc2ccccc2n1 (some centres not stated) > 100 µM

What do you have for O=c1c(Oc2ccc(F)cc2F)cc2cnc(NC3CCOCC3)nc2n1C1CCS(=O)(=O)CC1 ? > 25 µM

Next: CCC(C)C(C(=O)N/N=C1/SCC(=O)N1c1ccccc1)C(=O)N/N=C1/SCC(=O)N1c1ccccc1 (configuration not stated) 44.7 µM

Param item: NC1(C(=O)NC2(C(=O)O)CCCC2)CCCC1 (H-[Ac5c]-[Ac5c]-OH) > 100 µM

Repeat with CC/C(C)=C1\CCC(CN2CCOCC2)C1=O (configuration not stated) 33 µM

Cc1c(NC(=O)C(C)(C)Br)c(=O)oc2c(C)c3occc(=O)c3cc12 ? > 100 µM

Entry O=[N+]([O-])c1cccc(C2N3CCCCC3[C@@H]3c4[nH]c5ccccc5c4CCN23)c1 (some centres not stated) please 18.9 µM

Ok, now O=C1c2ccccc2C(O)(C(=O)O)C1(O)CC=C(Cl)Cl (configuration not stated) > 125 µM

Now the same for COc1cc(S(=O)(=O)Nc2nc(-c3ccc(N4C(=O)C(CC(=O)O)SC4c4ccccc4O)cc3)cs2)ccc1Cl (configuration not stated) > 100 µM

Follow-up item: CCCCOC(=O)NC(=O)c1cn(CCCOC(=O)CCCCCCCCC(=O)OCCCn2cc(C(=O)NC(=O)OCCCC)c(=O)[nH]c2=O)c(=O)[nH]c1=O > 100 µM

Ok, now N=c1oc2ccc([N+](=O)[O-])cc2cc1C(=O)NCc1ccccc1 26.7 µM

Similarly, CC1=C(C(=O)Nc2ccccc2C)C(c2ccc(Cl)c(Cl)c2)C(C(=O)Nc2ccccc2C)=C(C)N1 ? 52.3 µM

Same again, this time with CCN(CC)C1Oc2cc3c(cc2C(c2ccc(OC)cc2)C1C)OCO3 (configuration not stated) 37.3 µM

What do you get for CC[C@@H]1OC2(C)CC(S(=O)(=O)c3ccccc3O)CC1O2 (some centres not stated) ? > 100 µM

Also, COc1cc(OCc2ccc3nc(-c4ccccc4)c(Cl)nc3c2)cc(OC)c1OC please. 96.1 µM

One more compound: O=c1c2cc(Cl)ccc2oc2ccc(OCCCCCN3CCCCC3)cc12 14.1 µM

// repeat for Cc1cc(Cl)ccc1NC(=O)CCCC(=O)C1CCCC1=O (configuration not stated) and report > 100 µM

Entry CO[C@H]1c2cccc3cccc(c23)[C@@H]1n1[nH]c(=O)n(C(C)(C)C)c1=O please > 100 µM

Ok, now CC(=O)c1cccc(N2COC(C)(C)c3nc4ccccc4n3C2)c1 > 100 µM

----------
Consider the following molecules; for each one, report its TGI.
system: OVCAR-8 ovarian; test: NCI tumour cell line growth inhibition, 48 h

# input molecule: CC/C(C)=C1\CCC(CN2CCOCC2)C1=O (stereo not given) ; wanted: its TGI 50.6 µM

// next record Nc1ccc(N(S(=O)(=O)c2ccccc2)S(=O)(=O)c2ccccc2)c(Cl)c1 > 100 µM

Try CCOC(=O)Nc1nc2ccc(Cn3cccc3)cc2[nH]1 next. > 100 µM

Request: COc1cc(C(=O)/C(C)=C/c2c[nH]c3ccccc23)cc(OC)c1OC 82.4 µM

Try this molecule too: Cc1cc([C@H](C#N)c2nc3ccccc3[nH]2)nc(Cl)n1 > 100 µM

Also O=C(N/N=C/c1ccc2c(c1)OCO2)Nc1ccccc1Cl ? > 43.1 µM

Proceed to O=[n+]1c2ccccc2n([O-])c2ccccc21 > 100 µM

Another molecule to look at: NNC(=O)/C(=C/c1ccc(Cl)c(Cl)c1)NC(=O)c1ccccc1 > 100 µM

Next entry: COC(=O)c1s/c(=N\C(=S)N(C)C)n(-c2ccccc2)c1C(=O)OC > 100 µM

// same read-out, input: CNc1c2cccc(C)c2nc2c(C(=O)NCCN(C)C)cccc12 0.297 µM
